# System: E. coli ATCC 25922
# CONDITION LABEL: MIC E. coli ATCC 25922 (µg/mL)
Bridge positions count the residues as written; N and C are the ends. Square brackets hold non-standard residues; d marks the D form. Peptide text beside a SMILES is read from it. * marks the point of attachment. Phe(4-NH2) = Nc1ccc(C[C@H](N)C(=O)O)cc1; dGly(nOct) = CCCCCCCC[C@@H](N)C(=O)O; Octanoyl(6-Me) = CCC(C)CCCCC(=O)*; dDab = NCC[C@@H](N)C(=O)O; Octanoyl = CCCCCCCC(=O)*; Dab = NCC[C@H](N)C(=O)O
Entries annotated with measured MIC

[
  {
    "COMPOUND": "CCCCCCCC(=O)N[C@H](C(=O)NCC(=O)N[C@H]1CCNC(=O)[C@H]([C@@H](C)O)NC(=O)[C@H](CCN)NC(=O)[C@H](CCN)NC(=O)[C@H](CC(C)C)NC(=O)[C@@H](Cc2ccccc2)NC(=O)[C@H](CCN)NC1=O)[C@@H](C)O [Compound 39] (Octanoyl-TG[Dab][Dab][dF]L[Dab][Dab]T; lactam 3-C)",
    "TEST TARGET": "E. coli ATCC 25922",
    "MIC": "4 µg/mL"
  },
  {
    "COMPOUND": "CCCCCCCC(=O)N[C@H](CCN)C(=O)N[C@H](C(=O)NCC(=O)N[C@H]1CCNC(=O)[C@H]([C@@H](C)O)NC(=O)[C@H](CCN)NC(=O)[C@H](CCN)NC(=O)[C@H](CC(C)C)NC(=O)[C@@H](Cc2ccccc2)NC(=O)[C@H](CCN)NC1=O)[C@@H](C)O [Compound 40] (Octanoyl-[dDab]TG[Dab][Dab][dF]L[Dab][Dab]T; lactam 4-C)",
    "TEST TARGET": "E. coli ATCC 25922",
    "MIC": "> 32 µg/mL"
  },
  {
    "COMPOUND": "CCCCCCCC[C@H]1NC(=O)[C@H](CCN)NC(=O)[C@@H](NC(=O)[C@H](CCN)NC(=O)[C@@H](NC(=O)[C@H](CCN)NC(=O)CCCCCCC)[C@@H](C)O)CCNC(=O)[C@H]([C@@H](C)O)NC(=O)[C@H](CCN)NC(=O)[C@H](CCN)NC(=O)[C@H](CC(C)C)NC1=O (Octanoyl-[Dab]T[Dab][Dab][Dab][dGly(nOct)]L[Dab][Dab]T; lactam 4-C)",
    "TEST TARGET": "E. coli ATCC 25922",
    "MIC": "2 µg/mL"
  },
  {
    "COMPOUND": "CCCCCCCC(=O)N[C@@H](CCN)C(=O)N[C@H](C(=O)N[C@@H](CCN)C(=O)N[C@H]1CCNC(=O)[C@H]([C@@H](C)O)NC(=O)[C@H](CCN)NC(=O)[C@H](CCN)NC(=O)[C@H](CC(C)C)NC(=O)[C@@H](Cc2ccccc2)NC(=O)[C@H](CCNC(=O)[C@@H](N)CCC(=O)O)NC1=O)[C@@H](C)O [Compound 32] (Octanoyl-[Dab]T[Dab][Dab][Dab](Glu)[dF]L[Dab][Dab]T; lactam 4-C)",
    "TEST TARGET": "E. coli ATCC 25922",
    "MIC": "> 32 µg/mL"
  },
  {
    "COMPOUND": "CCC(C)CCCCC(=O)N[C@@H](CCN)C(=O)N[C@H](C(=O)N[C@@H](CCN)C(=O)N[C@H]1CCNC(=O)[C@H]([C@@H](C)O)NC(=O)[C@H](CCN)NC(=O)[C@H](CCN)NC(=O)[C@H](CC(C)C)NC(=O)[C@@H](Cc2ccccc2)NC(=O)[C@H](CCN)NC1=O)[C@@H](C)O (stereo partly shown)",
    "TEST TARGET": "E. coli ATCC 25922",
    "MIC": "1 µg/mL"
  },
  {
    "COMPOUND": "CCC(C)CCCCC(=O)N[C@@H](CCN)C(=O)N[C@H](C(=O)N[C@@H](CCN)C(=O)N[C@H]1CCNC(=O)[C@H]([C@@H](C)O)NC(=O)[C@H](CCN)NC(=O)[C@H](CCN)NC(=O)[C@H](CC(C)C)NC(=O)[C@@H](CC(C)C)NC(=O)[C@H](CCN)NC1=O)[C@@H](C)O (stereo partly drawn) ({Octanoyl(6-Me)}-[Dab]T[Dab][Dab][Dab][dL]L[Dab][Dab]T; lactam 4-C)",
    "TEST TARGET": "E. coli ATCC 25922",
    "MIC": "0.25 µg/mL"
  },
  {
    "COMPOUND": "CCCCCCCC(=O)N[C@@H](CCN)C(=O)N[C@H](C(=O)N[C@@H](CCN)C(=O)N[C@H]1CCNC(=O)[C@H]([C@@H](C)O)NC(=O)[C@H](CCN)NC(=O)[C@H](CCN)NC(=O)[C@H](CC(C)C)NC(=O)[C@@H](Cc2ccccc2)NC(=O)[C@H](Cc2ccc(N)cc2)NC1=O)[C@@H](C)O [Compound 34] (Octanoyl-[Dab]T[Dab][Dab][Phe(4-NH2)][dF]L[Dab][Dab]T; lactam 4-C)",
    "TEST TARGET": "E. coli ATCC 25922",
    "MIC": "> 32 µg/mL"
  }
]

* * *

# System: P. aeruginosa PA9704, PmxR
Bridge positions count the residues as written; N and C are the ends. Square brackets hold non-standard residues; d marks the D form. Peptide text beside a SMILES is read from it. * marks the point of attachment. Benzoyl(4-Ph) = O=C(c1ccc(-c2ccccc2)cc1)*; dGly(nOct) = CCCCCCCC[C@@H](N)C(=O)O; Octanoyl = CCCCCCCC(=O)*; Dab = NCC[C@H](N)C(=O)O
Entries annotated with measured MIC
ASSAY ENDPOINT: MIC

[
  {
    "COMPOUND": "CCCCCCCC[C@H]1NC(=O)[C@H](CCN)NC(=O)[C@@H](NC(=O)[C@H](CCN)NC(=O)[C@@H](NC(=O)[C@H](CCN)NC(=O)CCCCCCC)[C@@H](C)O)CCNC(=O)[C@H]([C@@H](C)O)NC(=O)[C@H](CCN)NC(=O)[C@H](CCN)NC(=O)[C@H](CC(C)C)NC1=O (Octanoyl-[Dab]T[Dab][Dab][Dab][dGly(nOct)]L[Dab][Dab]T; lactam 4-C)",
    "TEST VALUE": "8 mg/L"
  },
  {
    "COMPOUND": "CCCCCCCC(=O)N[C@H](C(=O)NCC(=O)N[C@H]1CCNC(=O)[C@H]([C@@H](C)O)NC(=O)[C@H](CCN)NC(=O)[C@H](CCN)NC(=O)[C@H](CC(C)C)NC(=O)[C@@H](Cc2ccccc2)NC(=O)[C@H](CCN)NC1=O)[C@@H](C)O [Compound 39] (Octanoyl-TG[Dab][Dab][dF]L[Dab][Dab]T; lactam 3-C)",
    "TEST VALUE": "> 32 mg/L"
  },
  {
    "COMPOUND": "CC(C)C[C@@H]1NC(=O)[C@@H](Cc2ccccc2)NC(=O)[C@H](CCN)NC(=O)[C@@H](NC(=O)[C@H](CCN)NC(=O)[C@@H](NC(=O)[C@H](CCN)NC(=O)c2ccc(-c3ccccc3)cc2)[C@@H](C)O)CCNC(=O)[C@H]([C@@H](C)O)NC(=O)[C@H](CCN)NC(=O)[C@H](CCN)NC1=O [Compound 10] ({Benzoyl(4-Ph)}-[Dab]T[Dab][Dab][Dab][dF]L[Dab][Dab]T; lactam 4-C)",
    "TEST VALUE": "> 32 mg/L"
  }
]

* * *

# Test system: HepG2
# CONDITION LABEL: CC50 HepG2 (µM)
Numbered stars: 1 amine (or outer) side, 2 acyl side, 3 side chain; on linkers, the order of the positions; unused ones are H or OH. Bridge positions count the residues as written; N and C are the ends. Square brackets hold non-standard residues; d marks the D form. Peptide text beside a SMILES is read from it. * marks the point of attachment. dGly(nOct) = CCCCCCCC[C@@H](N)C(=O)O; NH(2-ClPh) = Clc1ccccc1N*; dDab = NCC[C@@H](N)C(=O)O; Octanoyl = CCCCCCCC(=O)*; Dab = NCC[C@H](N)C(=O)O; CO = O=C([*:1])[*:2]
Entries annotated with measured CC50

[
  {
    "COMPOUND": "CC(C)C[C@@H]1NC(=O)[C@@H](Cc2ccccc2)NC(=O)[C@H](CCN)NC(=O)[C@@H](NC(=O)[C@@H](CO)NC(=O)[C@@H](NC(=O)[C@H](CCN)NC(=O)Nc2ccccc2Cl)[C@@H](C)O)CCNC(=O)[C@H]([C@@H](C)O)NC(=O)[C@H](CCN)NC(=O)[C@H](CCN)NC1=O [Compound 17] ({NH(2-ClPh)-CO}-[Dab]T[dS][Dab][Dab][dF]L[Dab][Dab]T; lactam 4-C)",
    "CC50": "> 300 µM"
  },
  {
    "COMPOUND": "CCCCCCCC[C@H]1NC(=O)[C@H](CCN)NC(=O)[C@@H](NC(=O)[C@H](CCN)NC(=O)[C@@H](NC(=O)[C@H](CCN)NC(=O)CCCCCCC)[C@@H](C)O)CCNC(=O)[C@H]([C@@H](C)O)NC(=O)[C@H](CCN)NC(=O)[C@H](CCN)NC(=O)[C@H](CC(C)C)NC1=O (Octanoyl-[Dab]T[Dab][Dab][Dab][dGly(nOct)]L[Dab][Dab]T; lactam 4-C)",
    "CC50": "254 µM"
  },
  {
    "COMPOUND": "CC(C)C[C@@H]1NC(=O)[C@@H](Cc2ccccc2)NC(=O)[C@H](CCN)NC(=O)[C@@H](NC(=O)[C@@H](CCN)NC(=O)[C@@H](NC(=O)[C@H](CCN)NC(=O)Nc2ccccc2Cl)[C@@H](C)O)CCNC(=O)[C@H]([C@@H](C)O)NC(=O)[C@H](CCN)NC(=O)[C@H](CCN)NC1=O [Compound 16] ({NH(2-ClPh)-CO}-[Dab]T[dDab][Dab][Dab][dF]L[Dab][Dab]T; lactam 4-C)",
    "CC50": "> 300 µM"
  },
  {
    "COMPOUND": "CCCCCCCC(=O)N[C@@H](CCN)C(=O)N[C@H](C(=O)N[C@@H](CCN)C(=O)N[C@H]1CCNC(=O)[C@H]([C@@H](C)O)NC(=O)[C@H](CCNC(=O)[C@@H](N)CCCNC(=N)N)NC(=O)[C@H](CCN)NC(=O)[C@H](CC(C)C)NC(=O)[C@@H](Cc2ccccc2)NC(=O)[C@H](CCN)NC1=O)[C@@H](C)O [Compound 18] (Octanoyl-[Dab]T[Dab][Dab][Dab][dF]L[Dab][Dab](Arg)T; lactam 4-C)",
    "CC50": "> 300 µM"
  },
  {
    "COMPOUND": "CCCCCCCC(=O)N[C@H](C(=O)NCC(=O)N[C@H]1CCNC(=O)[C@H]([C@@H](C)O)NC(=O)[C@H](CCN)NC(=O)[C@H](CCN)NC(=O)[C@H](CC(C)C)NC(=O)[C@@H](Cc2ccccc2)NC(=O)[C@H](CCN)NC1=O)[C@@H](C)O [Compound 39] (Octanoyl-TG[Dab][Dab][dF]L[Dab][Dab]T; lactam 3-C)",
    "CC50": "> 300 µM"
  },
  {
    "COMPOUND": "CCCCCCCC(=O)N[C@H](CCN)C(=O)N[C@H](C(=O)NCC(=O)N[C@H]1CCNC(=O)[C@H]([C@@H](C)O)NC(=O)[C@H](CCN)NC(=O)[C@H](CCN)NC(=O)[C@H](CC(C)C)NC(=O)[C@@H](Cc2ccccc2)NC(=O)[C@H](CCN)NC1=O)[C@@H](C)O [Compound 40] (Octanoyl-[dDab]TG[Dab][Dab][dF]L[Dab][Dab]T; lactam 4-C)",
    "CC50": "> 300 µM"
  }
]
